Where these numbers come from: patent US20090170872A1

- SYSTEM UNDER TEST: UniProt:P35354
- TEST SUMMARY: COX-2 enzyme based assay (purified recombinant enzyme, prostaglandin EIA)
- Assay type: biochemical
- COND: 10 μM
Below is a list of entries, each paired with its recorded inhibition at 10 µM value.
Answer in %, number only, no unit symbol.

COMPOUND	SYSTEM UNDER TEST	inhibition at 10 µM (%)
COc1cc(O/N=C2/c3c(n(C)c4ccccc34)CCC2Cn2ccnc2C)nc(OC)n1 (stereo not shown) [Example 20]	UniProt:P35354	34.9

QUERY: Value lookup for inhibition at 10 µM; key = Cc1nccn1CC1CCc2c(c3ccccc3n2C)/C1=N/OC(=O)c1ccc(Br)s1 (stereo not shown) [Example 62]
RESULT: 36.5

QUERY: Same lookup for Cc1nccn1CC1CCc2c(c3ccccc3n2C)/C1=N/Oc1ccc(Br)cn1 (stereo not shown) [Example 17] , please.
RESULT: 42.7

QUERY: Same lookup for Cc1nccn1CC1CCc2c(c3ccccc3n2C)/C1=N/Oc1ccc(C(F)(F)F)cn1 (stereo not shown) [Example 21] , please.
RESULT: 23.6

###

Below is a list of entries, each paired with its recorded inhibition at 1 µM value.
- SYSTEM UNDER TEST: COX-2 (Homo sapiens)
- Sequence (P35354 18-604): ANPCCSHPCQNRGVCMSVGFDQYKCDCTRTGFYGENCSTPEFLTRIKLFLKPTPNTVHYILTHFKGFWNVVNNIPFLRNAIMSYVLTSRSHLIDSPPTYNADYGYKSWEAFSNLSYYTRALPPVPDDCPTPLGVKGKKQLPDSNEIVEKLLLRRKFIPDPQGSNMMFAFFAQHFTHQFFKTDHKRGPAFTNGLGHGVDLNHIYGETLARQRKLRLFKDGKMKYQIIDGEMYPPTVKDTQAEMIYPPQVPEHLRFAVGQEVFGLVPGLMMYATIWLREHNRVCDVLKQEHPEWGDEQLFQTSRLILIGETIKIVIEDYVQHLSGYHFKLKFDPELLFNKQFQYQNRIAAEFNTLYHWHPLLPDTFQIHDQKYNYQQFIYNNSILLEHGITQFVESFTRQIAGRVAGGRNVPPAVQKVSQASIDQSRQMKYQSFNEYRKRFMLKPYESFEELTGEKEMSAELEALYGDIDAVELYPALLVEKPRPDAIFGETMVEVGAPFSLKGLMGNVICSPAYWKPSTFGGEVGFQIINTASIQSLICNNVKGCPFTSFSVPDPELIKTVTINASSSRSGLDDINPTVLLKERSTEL
- TEST SUMMARY: COX-2 enzyme based assay (purified recombinant enzyme, prostaglandin EIA)
- Assay type: biochemical
- COND: 1 μM
Mention the unit after the number when you answer.

COMPOUND	inhibition at 1 µM
COc1cc(O/N=C2/c3c(n(C)c4ccccc34)CCC2Cn2ccnc2C)nc(OC)n1 (stereo not shown)	32.7%
Cc1nccn1CC1CCc2c(c3ccccc3n2C)/C1=N/Oc1ccc(C(F)(F)F)cn1 (stereo not shown)	23%
Cc1nccn1CC1CCc2c(c3ccccc3n2C)/C1=N/OC(=O)c1ccc(Br)s1 (stereo not shown)	42%

Moving on to the next compound.
QUERY: Value lookup for inhibition at 1 µM; key = Cc1nccn1CC1CCc2c(c3ccccc3n2C)/C1=N/Oc1ccc(Br)cn1 (stereo not shown)
RESULT: 41.5%
